All figures here come from PubChem BioAssay (NCI).

System: NCI-H460 lung
Assay: NCI-60 one-dose screen, 48 h (100 = growth as untreated, 0 = no growth, -100 = all killed)
Conditions: 10 µM unless noted
The panel holds about 83,000 compounds, 20% with a hit somewhere; the sample as a whole holds those more often.
Field: label. Allowed values: satisfied (growth < 30%) or not satisfied (growth >= 30%).

Example results:
{"COMPOUND": "CC(C)(C)CC(C)(C)c1ccc(OCCOCC[N+](C)(C)CC(=O)[O-])cc1", "ASSIGNED CATEGORY": "not satisfied"}
{"COMPOUND": "O=C1c2cc3c(cc2-c2c1c1ccc(F)cc1c(=O)n2CCCN1CCOCC1)OCO3", "ASSIGNED CATEGORY": "satisfied"}
{"COMPOUND": "COc1cc2nc(Cl)nc(Nc3cccc(C(=O)/C=C/c4ccc(Br)cc4)c3)c2cc1OC", "ASSIGNED CATEGORY": "not satisfied"}
{"COMPOUND": "C=C1CC[C@@H](C(=O)OC)Cc2nc(C)ccc21", "ASSIGNED CATEGORY": "not satisfied"}

In: Check if growth falls below 30% for Nc1c2c(nc3ccc(Cl)cc13)CC(c1ccc(O)cc1)CC2=O (stereo not drawn) .
Out: satisfied

In: Check if growth falls below 30% for Nc1c(C(=O)Nc2cccc(Br)c2)sc2nc3c(cc12)C(=O)CCC3 .
Out: satisfied

In: Check if growth falls below 30% for COc1cc(-c2cc(-c3nc4ccc(F)cc4[nH]3)[nH]n2)cc(OC)c1OC .
Out: not satisfied

In: Check if growth falls below 30% for C=C(C)[C@@H]1CC[C@]2(C(=O)O)CC[C@]3(C)[C@H](CC[C@@H]4[C@@]5(C)C/C(=C/c6cccc(I)c6)C(=O)C(C)(C)[C@@H]5CC[C@]43C)[C@@H]12 .
Out: satisfied

In: Check if growth falls below 30% for COc1ccc(OC)c(-c2c(C#N)c(-c3ccco3)nc3c2c(-c2ccccc2)nn3-c2ccccc2)c1 .
Out: not satisfied

In: Check if growth falls below 30% for CC1(C)C(=O)/C(=C\c2ccccn2)C[C@]2(C)[C@H]3CC[C@@H]4[C@@H](C(=O)/C=C/c5ccccn5)CC[C@@]4(C)[C@]3(C)CC[C@@H]12 .
Out: satisfied

In: Check if growth falls below 30% for CC1(C)C=CC[C@]2(C)[C@H]3CC[C@@H]4[C@H]5[C@H](C(=O)/C=C/c6cccnc6)CC[C@]5(CO)CC[C@@]4(C)[C@]3(C)CC[C@@H]12 .
Out: satisfied

====

Known growth of a selection of compounds
Test system: SR leukemia
Assay: NCI-60 one-dose screen, 48 h (100 = growth as untreated, 0 = no growth, -100 = all killed)
Settings: 10 µM unless noted
Experimental: Growth inhibition of the SR human tumor cell line is measured as a screen for anti-cancer activity. Cells are grown in 96 well plates and exposed to the test compound for 48 hours. Compounds are tested at a single concentration, which is 10^-5 M for most compounds. The reported endpoint is percent growth (GI% or GIPRCNT), where numbers from 0 - 100% represent growth inhibition, and numbers from -100% - 0 represent cell death. For example, a value of 40 represents 60% growth inhibition. […]
This is part of a sample that, as a whole, favours compounds with a hit. Of some 83,000 tested, about 20% had one in any assay.
The figure you give is taken to be in %; do not add the unit.

{"COMPOUND": "COC(=O)[C@]12CC[C@@H](C)[C@H](C)[C@@H]1C1=CC[C@@H]3[C@@]4(C)C(c5ncon5)=C[C@@](C)(CO)C4=CC[C@@]3(C)[C@]1(C)CC2", "TARGET ENTITY": "SR leukemia", "UOM": "%", "RESULT": -15.5}
{"COMPOUND": "COc1cc(-c2cc3cc(O)ccc3oc2=O)cc(OC)c1OC", "TARGET ENTITY": "SR leukemia", "UOM": "%", "RESULT": 84}
{"COMPOUND": "CC(=O)OC[C@]12CC[C@@H](/C(C)=N/O)[C@@H]1[C@H]1CC[C@@H]3[C@@]4(C)CCCNC(C)(C)[C@@H]4CC[C@@]3(C)[C@]1(C)CC2", "TARGET ENTITY": "SR leukemia", "UOM": "%", "RESULT": 51.8}
{"COMPOUND": "Cc1cc2nc3c4cc(O)ccc4n(CCN(C)C)c3nc2cc1C", "TARGET ENTITY": "SR leukemia", "UOM": "%", "RESULT": 8.05}
{"COMPOUND": "COc1ccc(/C=C(\\C#N)c2cc3ccccc3n2S(C)(=O)=O)cc1", "TARGET ENTITY": "SR leukemia", "UOM": "%", "RESULT": 53.1}

In: Quick one: growth for CCNCCCn1c2c(c3ccc([N+](=O)[O-])cc3c1=O)C(=O)c1cc(OC)cnc1-2 ?
Out: 0

In: Quick one: growth for COC(=O)[C@]12CC[C@@H](C(/C=C/c3cccnc3)=N/O)[C@@H]1[C@H]1CC[C@@H]3[C@@]4(C)CC(=C/c5cccnc5)/C(=N/O)C(C)(C)[C@@H]4CC[C@@]3(C)[C@]1(C)CC2 ?
Out: 11.4

In: Quick one: growth for COC(=O)[C@]12CC[C@@H](C)[C@H](C)[C@@H]1C1=CC[C@@H]3[C@@]4(C)C[C@@H](O)OC[C@](C)(C=O)C4C(=O)C[C@@]3(C)[C@]1(C)CC2 (stereo partly specified) ?
Out: -14.3

In: Quick one: growth for C=C1C(=O)O[C@H]2[C@H]1CC/C(Cn1cc(-c3ccc(OC)cc3)nn1)=C\CC[C@@]1(C)O[C@@H]21 ?
Out: -10.8

In: Quick one: growth for CC(C)(C)CC(C)(C)c1ccc(OCCOCC[N+](C)(C)CC(=O)[O-])cc1 ?
Out: 94.8

In: Quick one: growth for Cc1ccc(-c2ccc(Nc3ccccc3)nn2)cc1S(N)(=O)=O ?
Out: 23.6

In: Quick one: growth for Cn1c2ccccc2c2c3c(c4c5cccnc5[nH]c4c21)C(=O)N(O)C3=O ?
Out: 11.4

In: Quick one: growth for CCCCC[C@H]1C/C=C2/C(=O)C(Cl)=C[C@@H]2C/C=C\CCCC(=O)O[C@@H](CCCCC)C/C=C2/C(=O)C(Cl)=C[C@@H]2C/C=C\CCCC(=O)O1 ?
Out: -7.23

====

Test system: RPMI-8226 leukemia
Experiment: NCI-60 one-dose screen, 48 h (100 = growth as untreated, 0 = no growth, -100 = all killed)
Details: 10 µM unless noted
About 83,000 compounds went through this panel and 20% of them were active in at least one assay; those are over-represented in the sample as a whole.
Known growth of a selection of compounds
The figure you give is taken to be in %; do not add the unit.

In: Quick one: growth for C=C(C)[C@@H]1CC[C@]2(C(=O)N3CCN(C)CC3)CC[C@]3(C)[C@H](CC[C@@H]4[C@@]5(C)C/C(=C/c6ccc(C(F)(F)F)cc6)C(=O)C(C)(C)[C@@H]5CC[C@]43C)[C@@H]12 ?
Out: 86.1

In: Quick one: growth for Cn1cc(-c2csc(-c3cn(CCN)c4ccccc34)n2)c2cccnc21 ?
Out: 51.1

In: Quick one: growth for O=C1CCN2C(=O)Nc3ccccc3C2C1 (stereo not given) ?
Out: 111

In: Quick one: growth for CC(=O)NC1=C(C#N)C(c2ccccc2Cl)c2c(ccc3ccccc23)O1 (stereo not given) ?
Out: 55.5

In: Quick one: growth for Cc1cc2nc3c4cc(Cl)ccc4n(CCN(C)C)c3nc2cc1C ?
Out: -11.5

In: Quick one: growth for Cc1cc2nc3c4cc(N)ccc4n(CCN(C)C)c3nc2cc1C ?
Out: -7.46

====

System: ACHN renal
Assay: NCI-60 one-dose screen, 48 h
Settings: 10 µM unless noted
Compounds without any hit were thinned out: in the full panel of roughly 83,000, 20% have a hit. Calls of active or inactive are those of the source. How the source made its calls: active means growth percent below 10; inactive means the rest.
Select the correct class. Options are active, inactive and nothing else.

Example results:
{"MOLECULE": "Cc1ccc(-c2ccc(Nc3ccccc3)nn2)cc1S(N)(=O)=O", "ASSIGNED CATEGORY": "inactive"}
{"MOLECULE": "COc1cc(-c2cc3ncccc3c3nc(N)c4cccnc4c23)cc(OC)c1OC", "ASSIGNED CATEGORY": "inactive"}
{"MOLECULE": "NCCn1cc(-c2nc(-c3c[nH]c4ncccc34)cs2)c2cc(F)ccc21", "ASSIGNED CATEGORY": "inactive"}
{"MOLECULE": "N#CC1C(=N)Cc2ccccc2-c2ccccc21 (stereo not drawn)", "ASSIGNED CATEGORY": "inactive"}
{"MOLECULE": "NNC(=O)c1nc2ccccc2[nH]1", "ASSIGNED CATEGORY": "inactive"}

In: Just curious, what result did CCN1CCN(C(=O)[C@]23CCC(C)(C)C[C@@H]2C2=CC[C@@H]4[C@@]5(C)C/C(=C/c6ccncc6)C(=O)C(C)(C)[C@@H]5CC[C@@]4(C)[C@]2(C)CC3)CC1 get here?
Out: active

In: Just curious, what result did O=S(=O)(NCCNc1cc(-c2cn(-c3ccccc3)nc2-c2cccc(O)c2)ccn1)c1ccc(F)cc1 get here?
Out: inactive

In: Just curious, what result did [B-][N+](CC)(CC)c1ccccc1 get here?
Out: inactive

In: Just curious, what result did C=C(C)[C@@H]1CC[C@]2(C)[C@H](CC=C3[C@@H]4CC(C)(C)CC[C@]4(C=O)CC[C@]32C)[C@@]1(C)CCCN get here?
Out: inactive

In: Just curious, what result did CN(C)c1ccc(N)c2ccccc12 get here?
Out: inactive

In: Just curious, what result did COc1cc(-c2c(C#N)c(-c3cccs3)nc3c2c(-c2ccccc2)nn3-c2ccccc2)ccc1O get here?
Out: inactive

In: Just curious, what result did Oc1cccc2ccc(N/N=C/c3cc(CN4CCCCC4)c(O)c4ncccc34)nc12 get here?
Out: active

In: Just curious, what result did Cc1oc(-c2ccccc2Cl)cc1C(=O)Nc1ccc(S(N)(=O)=O)cc1 get here?
Out: inactive

In: Just curious, what result did Cn1c(=O)c2c(ncn2CC(=O)Nc2ccc(S(N)(=O)=O)cc2)n(C)c1=O get here?
Out: inactive

In: Just curious, what result did COc1ccc(C2c3ccccc3NC(=O)N2C2CCN(C)CC2)c(OC)c1 (stereo not drawn) get here?
Out: inactive

In: Just curious, what result did Cc1ccc(N(CC(=O)Nc2ccc(S(=O)(=O)NC3CCN(C)CC3)cc2)S(=O)(=O)c2ccc(Cl)cc2)cc1 get here?
Out: inactive

In: Just curious, what result did COc1cccc(-c2nn(-c3ccccc3)cc2-c2ccnc(NCCCNS(=O)(=O)c3ccc(C(F)(F)F)cc3)c2)c1 get here?
Out: inactive

In: Just curious, what result did COc1cc2c(cc1-c1c(C)noc1C)ncc1nc(C3CCCCC3)n([C@@H](C)COC(F)F)c12 get here?
Out: inactive

In: Just curious, what result did COc1ccc(C(=O)c2cc(OC)c(OC)c(OC)c2)cc1/C=C/C(=O)c1cc(OC)c(OC)c(OC)c1 get here?
Out: inactive

In: Just curious, what result did CC(C)C[C@@H](NC(=O)[C@@H](Cc1ccccc1)NC(=O)c1cnccn1)B1O[C@H]2[C@H](O)[C@@H](C(=O)NCCCC[C@@H]3NC(=O)[C@@H](Cc4ccccc4)NC(=O)[C@H](CC(=O)O)NC(=O)CNC(=O)[C@H](CCCN=C(N)N)NC3=O)O[C@@H](CN)[C@H]2O1 get here?
Out: active

In: Just curious, what result did Nc1ncnc2nc(Br)[nH]c12 get here?
Out: inactive

In: Just curious, what result did CC(CNc1nc(Nc2ccc(Cl)c(Cl)c2)nc(C(Cl)(Cl)Cl)n1)N(C)C (stereo not drawn) get here?
Out: active
